Source of measurements: patent US20090028788A1

Molecular target: T1, purified human αvβ3 integrin protein (human, UniProt P06756 31-1048; P05106 27-788)
T1 construct: Bought heterodimer; also called ABI; purified αvβ3 integrin
T1 sequence (P06756 31-1048, form in doubt, chain 1 of 2): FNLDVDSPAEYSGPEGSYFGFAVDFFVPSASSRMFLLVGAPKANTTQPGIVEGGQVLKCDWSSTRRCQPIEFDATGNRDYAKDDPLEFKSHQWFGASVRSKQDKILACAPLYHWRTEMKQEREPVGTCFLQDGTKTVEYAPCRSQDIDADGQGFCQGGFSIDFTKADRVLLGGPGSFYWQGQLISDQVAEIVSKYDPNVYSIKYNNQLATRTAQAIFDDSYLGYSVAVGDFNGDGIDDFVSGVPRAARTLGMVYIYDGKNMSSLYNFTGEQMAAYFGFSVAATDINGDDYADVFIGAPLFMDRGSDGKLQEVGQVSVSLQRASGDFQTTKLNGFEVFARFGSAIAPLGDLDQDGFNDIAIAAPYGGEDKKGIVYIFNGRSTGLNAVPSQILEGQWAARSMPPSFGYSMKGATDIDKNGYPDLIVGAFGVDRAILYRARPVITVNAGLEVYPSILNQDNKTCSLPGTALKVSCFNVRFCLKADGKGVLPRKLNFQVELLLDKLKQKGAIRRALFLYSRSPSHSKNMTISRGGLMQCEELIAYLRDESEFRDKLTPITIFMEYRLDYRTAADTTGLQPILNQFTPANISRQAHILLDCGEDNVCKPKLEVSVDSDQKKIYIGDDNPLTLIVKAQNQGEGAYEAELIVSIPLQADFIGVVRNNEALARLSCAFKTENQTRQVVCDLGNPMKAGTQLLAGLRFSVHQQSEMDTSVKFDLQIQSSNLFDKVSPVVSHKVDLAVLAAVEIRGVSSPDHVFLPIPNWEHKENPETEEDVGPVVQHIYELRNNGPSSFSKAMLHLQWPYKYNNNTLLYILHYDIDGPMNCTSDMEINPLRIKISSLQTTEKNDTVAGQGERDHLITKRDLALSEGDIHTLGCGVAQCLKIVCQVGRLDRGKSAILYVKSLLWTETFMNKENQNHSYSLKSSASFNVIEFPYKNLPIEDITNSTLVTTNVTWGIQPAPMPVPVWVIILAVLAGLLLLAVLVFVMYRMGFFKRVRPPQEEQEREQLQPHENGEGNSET
T1 sequence (P05106 27-788, form in doubt, chain 2 of 2): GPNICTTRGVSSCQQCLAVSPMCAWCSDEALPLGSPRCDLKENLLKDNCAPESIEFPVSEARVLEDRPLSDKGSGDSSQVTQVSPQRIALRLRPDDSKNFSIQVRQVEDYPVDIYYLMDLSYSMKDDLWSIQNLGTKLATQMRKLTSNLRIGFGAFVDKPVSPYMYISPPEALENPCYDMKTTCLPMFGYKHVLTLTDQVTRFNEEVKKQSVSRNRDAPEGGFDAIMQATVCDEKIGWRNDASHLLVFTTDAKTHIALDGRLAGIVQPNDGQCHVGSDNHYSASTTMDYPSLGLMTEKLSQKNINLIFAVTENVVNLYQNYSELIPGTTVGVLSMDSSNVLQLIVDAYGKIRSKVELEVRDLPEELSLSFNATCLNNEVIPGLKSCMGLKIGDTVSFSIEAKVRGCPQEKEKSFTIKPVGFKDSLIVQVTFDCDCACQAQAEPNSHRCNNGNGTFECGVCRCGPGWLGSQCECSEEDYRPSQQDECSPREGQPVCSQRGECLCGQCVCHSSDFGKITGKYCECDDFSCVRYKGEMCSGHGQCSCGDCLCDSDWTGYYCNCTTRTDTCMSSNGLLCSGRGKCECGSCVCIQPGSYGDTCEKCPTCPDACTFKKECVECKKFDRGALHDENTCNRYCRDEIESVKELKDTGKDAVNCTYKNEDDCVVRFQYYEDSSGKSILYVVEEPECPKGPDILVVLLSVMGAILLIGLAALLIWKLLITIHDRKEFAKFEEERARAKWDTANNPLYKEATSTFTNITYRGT
Test: competition with 125I-echistatin on purified αvβ3 integrin, filtration plate (Example 3)
[ ]: non-standard residue; d: D form. The star is where a group is joined. Cypate = CC1(C)C(/C=C/C=C/C=C/C=C2/N(CCC(=O)*)c3ccc4ccccc4c3C2(C)C)=[N+](CCC(=O)O)c2ccc3ccccc3c21
Measured pIC50 by item
Scale for pIC50: -log10 of concentration given in mol/L; no unit attached.

// worked examples, pIC50 included
Would you mind telling me what pIC50 value was observed for GRGDSPK (HELM PEPTIDE1{[CC1(C)C(/C=C/C=C/C=C/C=C2/N(CCC(=O)[*:2])c3ccc4ccccc4c3C2(C)C)=[N+](CCC(=O)O)c2ccc3ccccc3c21].G.R.G.D.S.P.K}$$$$V2.0; SMILES CC1(C)C(/C=C/C=C/C=C/C=C2/N(CCC(=O)NCC(=O)N[C@@H](CCCNC(=N)N)C(=O)NCC(=O)N[C@@H](CC(=O)O)C(=O)N[C@@H](CO)C(=O)N3CCC[C@H]3C(=O)N[C@@H](CCCCN)C(=O)O)c3ccc4ccccc4c3C2(C)C)=[N+](CCC(=O)O)c2ccc3ccccc3c21, also called Cypate-GRGDSPK; Cypate-GRGDSPK-OH) [Cypate-Gly-Arg-Gly-Asp-Ser-Pro-Lys-OH] ?
4.97

Would you mind telling me what pIC50 value was observed for cyclo(K(Cypate)RGD[dF]V) (SMILES CC(C)[C@@H]1NC(=O)[C@@H](Cc2ccccc2)NC(=O)[C@H](CC(=O)O)NC(=O)CNC(=O)[C@H](CCCNC(=N)N)NC(=O)[C@H](CCCCNC(=O)CCN2/C(=C/C=C/C=C/C=C/C3=[N+](CCC(=O)O)c4ccc5ccccc5c4C3(C)C)C(C)(C)c3c2ccc2ccccc32)NC1=O, also called Cyclo(K^(Cypate)RGDfV); cyclo-[K^(Cypate)RGDfV]) [Cyclo(Lys(Cypate)-Arg-Gly-Asp-DPhe-Val)] ?
4.10

Proceeding to the next binder to report its pIC50.
Would you mind telling me what pIC50 value was observed for RGDXVK (HELM PEPTIDE1{R.G.D.[dF].V.K}$PEPTIDE1,PEPTIDE1,1:R1-6:R2$$$V2.0; SMILES CC(C)[C@@H]1NC(=O)[C@@H](Cc2ccccc2)NC(=O)[C@H](CC(=O)O)NC(=O)CNC(=O)[C@H](CCCNC(=N)N)NC(=O)[C@H](CCCCN)NC1=O) [cyclo[RGDfVK]] ?
5.72
